- Tested on: MDA-MB-435 melanoma
- TEST_METHOD_NOTES: NCI-60 one-dose screen, 48 h
- STUDY_CONDITIONS: 10 µM unless noted
Compounds without any hit were thinned out: in the full panel of roughly 83,000, 20% have a hit. The source made the active and inactive calls. How the source made its calls: active means growth percent below 10; inactive means the rest.
Give your call using only these classes: active, inactive

COc1ccc(-c2cc(C#N)c(NNC(C)=O)[nH]2)cc1	inactive
O=C(Nc1cccc(Cn2c(=O)[nH]c3ccc(Oc4ncccn4)cc3c2=O)c1)c1ccc(Cl)cc1	inactive
Nc1ccc(S(=O)(=O)c2ccc(NO)cc2)cc1	inactive

Each compound tested received a call. Report the one for COc1cc(-c2nn(-c3ccc(NC(=O)c4ccc(Cl)c(C(F)(F)F)c4)cc3)cc2-c2ccncc2)ccc1Cl .
inactive

Each compound tested received a call. Report the one for Cc1cc2c(-c3nc4ccccc4n3C)c(O)c(O)cc2c(O)c1-c1c(C)cc2c(-c3nc4ccccc4n3C)c(O)c(O)cc2c1O .
inactive

Each compound tested received a call. Report the one for COc1ccc(-c2cn3ccnc3c(-c3ccc4ncn(C5CCCCC5)c4c3)n2)cc1 .
active

Each compound tested received a call. Report the one for Clc1ccc(N/N=C/c2ccccn2)nc1 .
inactive

Each compound tested received a call. Report the one for CC[C@H](Nc1ncnc2nc[nH]c12)c1nc2cccc(NCc3ccc(C(=O)NO)o3)c2c(=O)n1-c1ccccc1 .
inactive

Each compound tested received a call. Report the one for CC(=O)Nc1nc(C)c(C(=O)NNS(=O)(=O)c2ccccc2)s1 .
inactive

Reference for the values: PubChem BioAssay (NCI)
